study_system: T1, mouse serum albumin (mouse, UniProt P07724 25-608)
T1 construct: also called MSA
T1 sequence (P07724 25-608 limits assumed): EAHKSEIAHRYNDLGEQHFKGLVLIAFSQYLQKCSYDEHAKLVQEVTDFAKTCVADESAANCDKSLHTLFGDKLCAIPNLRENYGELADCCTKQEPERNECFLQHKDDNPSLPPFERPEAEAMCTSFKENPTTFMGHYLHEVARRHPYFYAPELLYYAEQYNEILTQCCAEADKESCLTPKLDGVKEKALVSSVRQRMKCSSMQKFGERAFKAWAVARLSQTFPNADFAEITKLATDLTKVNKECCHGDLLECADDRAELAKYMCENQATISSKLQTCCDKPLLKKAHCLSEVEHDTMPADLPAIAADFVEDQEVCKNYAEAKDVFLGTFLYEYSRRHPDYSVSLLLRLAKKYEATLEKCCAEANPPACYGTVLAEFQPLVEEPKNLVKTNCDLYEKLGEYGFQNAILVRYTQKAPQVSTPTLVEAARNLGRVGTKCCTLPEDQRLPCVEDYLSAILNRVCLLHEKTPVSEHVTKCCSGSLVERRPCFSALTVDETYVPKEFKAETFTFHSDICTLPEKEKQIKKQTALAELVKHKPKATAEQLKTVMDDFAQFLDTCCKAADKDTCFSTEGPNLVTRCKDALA
experiment_description: SPR (Bruker Sierra SPR-32), MSA on chip, DARPin as analyte, 1:1 Langmuir fit
Description: Similarly, a SPR assay was used to determine the binding kinetics to human or mouse serum albumin. […] All analytes (3-fold dilution ranging from 1000-12.35 nM) were injected in succession for 240 s (25 μl/min) and dissociation was recorded for 600 s (25 μl/min).
measured_parameter: Kd (nM)

binder	unit_abbreviation	quantitative_result
MAM282 (two domain ankyrin repeat protein, N-terminal His6-TEV tag) (designed binder, also called 2D DARPin) MRGSHHHHHHENLYFQDLGKKLLEAARAGQDDEVRELLKAGADVNAKDYFSHTPLHLAARNGHLKIVEVLLKAGADVNAKDFAGKTPLHLAADAGHLEIVEVLLKAGADVNAQDIFGKTPADIAADAGHEDIAEVLQKAAGSPTPTPTTPTPTPTTPTPTPTGSDLGKKLLAAAREGQDDEVRELLKAGADVNAKDIWGQTPLHIAAWFGHLEIVEVLLKAGADVNAKDQTGHTPLHLAAKFGHLEIVEVLLKAGADVNAQDLLGRTPADLAAEEGHEDIAEVLQKAA	nM	335
MAM279 (two domain ankyrin repeat protein, N-terminal His6-TEV tag) (designed binder, Cleavage of the tag is not reported; also called 2D DARPin) MRGSHHHHHHENLYFQDLGKKLLEAARAGQDDEVRELLKAGADVNAKDYFSHTPLHLAARNGHLKIVEVLLKAGADVNAKDFAGKTPLHLAADAGHLEIVEVLLKAGADVNAQDIFGKTPADIAADAGHEDIAEVLQKAAGSPTPTPTTPTPTPTTPTPTPTGSDLGKKLLAAAAQGQDDEVRELLKAGANVNAKDLFGYTPLHLAAWRGHLEIVEVLLKAGADVNAKDAAGETPLHLAAWFGHLEIVEVLLKAGADVNAQDLQGKTPADLAAKEGHEDIAEVLQKAA	nM	367
MAM160 (two domain ankyrin repeat protein, N-terminal His6-TEV tag) (designed binder, also called 2D DARPin) MRGSHHHHHHENLYFQDLGKKLLEAARAGQDDEVRELLKAGADVNAKDYFSHTPLHLAARNGHLKIVEVLLKAGADVNAKDFAGKTPLHLAADAGHLEIVEVLLKAGADVNAQDIFGKTPADIAADAGHEDIAEVLQKAAGSPTPTPTTPTPTPTTPTPTPTGSDLGTKLLSAAADGQDDEVRELLQAGADVNAKDLFGYTPLHLAAWRGHLEIVEVLLEAGADVNAKDAAGLTPLHLAAWFGHLEIVEVLLEAGADVNAQDVQGVTPADLAAKEGHEDIAEVLQQAA	nM	336
